Listed next: entries and their corresponding MIC Enterococcus faecalis (GC 2242).
system: Enterococcus sp.; assay: In vitro antibacterial evaluation: minimum inhibitory concentration (MIC), broth dilution method; type: cell-based; details: broth dilution, inoculum 5×10^5 CFU/mL, 18 hours at 35° C.
Description: […]
Record the value in µg/mL, omitting the unit from your answer.

The examples below pair each entry with its known result.
Compound	Test Result
CC(c1ccccc1)C1NC(=O)CNC(=O)C(CO)NC(=O)C(C(O)C2CNC(=N)N2C2OC(CO)C(O)C(O)C2O)NC(=O)C(C(O)C2CNC(=N)N2)NC(=O)C(Cc2ccc(OC3OC(CO)C(OC4OC5COC6(CCC(C(C)(C)C)CC6)OC5C(O)C4O)C(O)C3O)cc2)NC1=O (centres unmarked) [Example 208]	8
CC(c1ccccc1)C1NC(=O)CNC(=O)C(CO)NC(=O)C(C(O)C2CNC(=N)N2C2OC(CO)C(O)C(O)C2O)NC(=O)C(C(O)C2CNC(=N)N2)NC(=O)C(Cc2ccc(OC3OC(CO)C(OC4OC5COC(c6ccc(Oc7ccc(C(C)(C)C)cc7)cc6)OC5C(O)C4O)C(O)C3O)cc2)NC1=O (centres unmarked) [Example 181]	2
CC(c1ccccc1)C1NC(=O)CNC(=O)C(CO)NC(=O)C(C(O)C2CN(c3ncccn3)C(=N)N2C2OC(CO)C(O)C(O)C2O)NC(=O)C(C(O)C2CNC(=Nc3ncccn3)N2)NC(=O)C(Cc2ccc(OC3OC(CO)C(OC4OC5COC6(OC5C(O)C4O)C4CC5CC(C4)CC6C5)C(O)C3O)cc2)NC1=O (centres unmarked) [Example 228]	32

Param readout= MIC Enterococcus faecalis (GC 2242); system= Enterococcus sp.; entry= CC(c1ccccc1)C1NC(=O)CNC(=O)C(CO)NC(=O)C(C(O)C2CNC(=N)N2C2OC(CO)C(O)C(O)C2O)NC(=O)C(C(O)C2CNC(=N)N2)NC(=O)C(Cc2ccc(OC3OC(CO)C(OC4OC(COCC=Cc5ccccc5)C(O)C(O)C4O)C(O)C3O)cc2)NC1=O (centres unmarked) [Example 242] ; returns value.
16

Param readout= MIC Enterococcus faecalis (GC 2242); system= Enterococcus sp.; entry= CC(C)=CCCC(C)=CCOc1ccc(C2OCC3OC(OC4C(CO)OC(Oc5ccc(CC6NC(=O)C(C(C)c7ccccc7)NC(=O)CNC(=O)C(CO)NC(=O)C(C(O)C7CNC(=N)N7C7OC(CO)C(O)C(O)C7O)NC(=O)C(C(O)C7CNC(=N)N7)NC6=O)cc5)C(O)C4O)C(O)C(O)C3O2)cc1 (centres unmarked) [Example 183] ; returns value.
8

====

Listed next: entries and their corresponding MIC Staphylococcus haemolyticus (GC 4546).
system: Staphylococcus sp.; test: In vitro antibacterial evaluation: minimum inhibitory concentration (MIC), broth dilution method; format: cell-based; settings: strain GC 4546
Record the value in µg/mL, omitting the unit from your answer.

Compound	Test Result
N=C1NCC(C(O)C2NC(=O)C(Cc3ccc(OC4OC(CO)C(OC5OC6COC7(OC6C6OC8(OC56)C5CC6CC(C5)CC8C6)C5CC6CC(C5)CC7C6)C(O)C4O)cc3)NC(=O)C(CC3CCCCC3)NC(=O)CNC(=O)C(CO)NC(=O)C(C(O)C3CNC(=N)N3C3OC(CO)C(O)C(O)C3O)NC2=O)N1 (centres unmarked) [Example 106b]	4

Turning now to a further record.
// query MIC Staphylococcus haemolyticus (GC 4546) value for entry CC(c1ccccc1)C1NC(=O)CNC(=O)C(CO)NC(=O)C(C(O)C2CNC(=N)N2C2OC(CO)C(O)C(O)C2O)NC(=O)C(C(O)C2CNC(=N)N2)NC(=O)C(Cc2ccc(OC3OC(CO)C(OC4OC5COC(C6CC=CCC6)OC5C(O)C4O)C(O)C3O)cc2)NC1=O (centres unmarked)
0.5
